Where do the numbers come from? From PubChem BioAssay AID1852.

experiment: TNF-a-driven NF-kB reporter inhibitors, primary screen, selectivity assay for NOD1/NOD2 signaling inhibitor project, cell-based, HEK293T NF-kB-Luc, luminescence (AID 1852); details: TNF-a induced, 14 h, at 4 µM, active compounds read high
In all, about 2,500 compounds went through this assay and about 1,100 (44%) were called active. The set was probably picked from earlier hits. Some of the results follow.
measurementKind: inhibition

Take a look at these entries with their results.
COc1cc(C(=O)Nc2sc3c(c2C(=O)O)CCC(C)C3)cc(OC)c1OC (stereo not drawn) : 40% (inactive)
CN1CCN(Cc2nc(Cc3cccc(F)c3)no2)CC1c1ccccc1 (stereo not drawn) : 3.2% (inactive)
CCN(CC)C(=O)c1oc2ccc(S(=O)(=O)N3CC(C)CC(C)C3)cc2c1C (stereo not drawn) : 31.2% (inactive)
O=[N+]([O-])c1cccnc1S(=O)(=O)c1ccccc1 : 69.6% (active)
COc1ccc2c(C(=O)CCl)c[nH]c2c1 : 66.7% (active)
O=S(=O)(Nc1nc2ccccc2nc1Nc1ccc(N2CCOCC2)cc1)c1cc(Cl)ccc1Cl : 77% (active)
C/C(CC(=O)Nc1cccnc1)=N\NC(=O)c1ccc([N+](=O)[O-])c(Cl)c1 : 15.3% (inactive)
COc1ccc(NS(=O)(=O)c2ccc(N/N=C(\C)c3ccncc3)c([N+](=O)[O-])c2)cc1 : 51.9% (active)
Cc1ccc(S(=O)(=O)c2ncccc2[N+](=O)[O-])cc1 : 52.6% (active)
COc1ccc(NC(=O)c2ccc(-c3ccccc3)cc2)cc1NS(=O)(=O)c1ccc(F)cc1 : 59.9% (active)

Record inhibition for all entries; do not skip any.
1. Cc1ccc(S(=O)(=O)Nc2cccc3cccnc23)cc1
2. COc1ccc(NS(=O)(=O)c2ccc3oc(SC(C)C(N)=O)nc3c2)cc1 (stereo not drawn)
3. Cc1ccc2cccc(NS(=O)(=O)c3ccccc3)c2n1
4. COc1ccc(OC)c(S(=O)(=O)N2CCN(c3ccccc3OC)CC2)c1
5. COc1cc(C(=O)N/N=C(\c2ccccc2)c2ccccn2)cc(OC)c1OC
6. Cc1ccc(S(=O)(=O)c2ccc([N+](=O)[O-])cn2)cc1
7. CCS(=O)(=O)c1ccc2oc(SCC(=O)NCc3ccccc3)nc2c1
8. Cc1nc(C)c(C(=O)NNS(=O)(=O)c2ccc3ccccc3c2)s1

["105% (active)", "2.2% (inactive)", "62.8% (active)", "5% (inactive)", "64% (active)", "38.5% (inactive)", "36.5% (inactive)", "21.5% (inactive)"]

Value sought for every listed compound: inhibition.
1. CC(=O)c1c(C)[nH]c(C(=O)Nc2nc(-c3ccc(-c4ccccc4)cc3)cs2)c1C
2. O=C(COc1ccc(Cl)cc1)Nc1nc(-c2ccc(S(=O)(=O)N3CCOCC3)cc2)cs1
3. COc1ccc(C)cc1NC(=O)CN(C)S(=O)(=O)c1ccc2c(c1)c(=O)n(C)c(=O)n2C
4. Cc1ccc(NS(=O)(=O)c2ccc(C(=O)N3CCN(c4ncccn4)CC3)cc2)cc1

["-7.7% (inactive)", "26.4% (inactive)", "19.7% (inactive)", "61.5% (active)"]
